Just for reference, patent US20170045513A1 is where these values come from.

system: gluten-reactive T cells; assay: 96-well plate whole blood cytokine release, IFNγ by MAGPIX multiplex bead assay; type: cell-based, human; conditions: Subject 6; after oral gluten challenge; Max. 72 pg/mL
Non-standard residues stand in square brackets, D forms with d. pGlu = O=C1CC[C@@H](C(=O)O)N1
Each entry below lists one item and its recorded Percent of maximal response to individual gluten peptides, IFNg value.
Metric Name: Percent of maximal response to individual gluten peptides, IFNg

INSERT INTO results (substance, value_measured) VALUES
  ('(pE)QPPFSEQEQPVLPQ-amide (N-terminal pyroglutamate; C-terminal amide) [Peptide 13]', '5 % of max'),
  ('(pE)GQQGYYPTSPQQSG-amide ([pGlu]GQQGYYPTSPQQSG-NH2; SMILES C[C@@H](O)[C@H](NC(=O)[C@@H]1CCCN1C(=O)[C@H](Cc1ccc(O)cc1)NC(=O)[C@H](Cc1ccc(O)cc1)NC(=O)CNC(=O)[C@H](CCC(N)=O)NC(=O)[C@H](CCC(N)=O)NC(=O)CNC(=O)[C@@H]1CCC(=O)N1)C(=O)N[C@@H](CO)C(=O)N1CCC[C@H]1C(=O)N[C@@H](CCC(N)=O)C(=O)N[C@@H](CCC(N)=O)C(=O)N[C@@H](CO)C(=O)NCC(N)=O) [Peptide 10]', '0 % of max'),
  ('(pE)QPYPQPELPYPQPQ-amide ([pGlu]QPYPQPELPYPQPQ-NH2; SMILES CC(C)C[C@H](NC(=O)[C@H](CCC(=O)O)NC(=O)[C@@H]1CCCN1C(=O)[C@H](CCC(N)=O)NC(=O)[C@@H]1CCCN1C(=O)[C@H](Cc1ccc(O)cc1)NC(=O)[C@@H]1CCCN1C(=O)[C@H](CCC(N)=O)NC(=O)[C@@H]1CCC(=O)N1)C(=O)N1CCC[C@H]1C(=O)N[C@@H](Cc1ccc(O)cc1)C(=O)N1CCC[C@H]1C(=O)N[C@@H](CCC(N)=O)C(=O)N1CCC[C@H]1C(=O)N[C@@H](CCC(N)=O)C(N)=O) [Peptide 15]', '5 % of max');
